Listed variants paired with reported normalized RNA/DNA level with ligand (log10)
B1: library; a variant is named by its letters at N, in order (parent)
chain: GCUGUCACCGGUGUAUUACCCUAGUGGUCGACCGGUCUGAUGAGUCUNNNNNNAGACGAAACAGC

variants of: B1; experiment: normalized RNA/DNA level with ligand (relative to sTRSVctl = 100) (log10 (% of sTRSVctl)); ligand: hypoxanthine (xanthine aptamer); higher = less ribozyme self-cleavage, higher mRNA level; details: ligand concentration (+) RNA-Seq: 5 mM, HEK293T, reporter: mCherry (pCS4076), ligand present: yes
Respond with the number and no other words.

Check out these entries, answers already filled in.
GCUGUCACCGGUGUAUUACCCUAGUGGUCGACCGGUCUGAUGAGUCUCUCAUUAGACGAAACAGC ... 1.99
GCUGUCACCGGUGUAUUACCCUAGUGGUCGACCGGUCUGAUGAGUCUGAGACGAGACGAAACAGC ... 1.75
GCUGUCACCGGUGUAUUACCCUAGUGGUCGACCGGUCUGAUGAGUCUAUGAAUAGACGAAACAGC ... 1.91
GCUGUCACCGGUGUAUUACCCUAGUGGUCGACCGGUCUGAUGAGUCUAGGCAAAGACGAAACAGC ... 1.89
GCUGUCACCGGUGUAUUACCCUAGUGGUCGACCGGUCUGAUGAGUCUGGGCCAAGACGAAACAGC ... 1.98

What does the data say about its normalized RNA/DNA level with ligand (log10)? Entry: GCUGUCACCGGUGUAUUACCCUAGUGGUCGACCGGUCUGAUGAGUCUUUUAGUAGACGAAACAGC
1.93

Please give the result for GCUGUCACCGGUGUAUUACCCUAGUGGUCGACCGGUCUGAUGAGUCUGUUGGAAGACGAAACAGC too.
1.91

Please give the result for GCUGUCACCGGUGUAUUACCCUAGUGGUCGACCGGUCUGAUGAGUCUUACUCUAGACGAAACAGC too.
1.92

Please give the result for GCUGUCACCGGUGUAUUACCCUAGUGGUCGACCGGUCUGAUGAGUCUUACGUCAGACGAAACAGC too.
2.02

Please give the result for GCUGUCACCGGUGUAUUACCCUAGUGGUCGACCGGUCUGAUGAGUCUCUUCUGAGACGAAACAGC too.
1.95

Please give the result for GCUGUCACCGGUGUAUUACCCUAGUGGUCGACCGGUCUGAUGAGUCUAUUGUCAGACGAAACAGC too.
1.95

Please give the result for GCUGUCACCGGUGUAUUACCCUAGUGGUCGACCGGUCUGAUGAGUCUGCUCCUAGACGAAACAGC too.
2.03

Please give the result for GCUGUCACCGGUGUAUUACCCUAGUGGUCGACCGGUCUGAUGAGUCUGCGAGAAGACGAAACAGC too.
1.8

Please give the result for GCUGUCACCGGUGUAUUACCCUAGUGGUCGACCGGUCUGAUGAGUCUGUCAGCAGACGAAACAGC too.
1.92

Please give the result for GCUGUCACCGGUGUAUUACCCUAGUGGUCGACCGGUCUGAUGAGUCUUUAAAUAGACGAAACAGC too.
1.96
